- systemTested: T1, human MSLN-FL-his protein (human, UniProt Q13421 296-580)
- T1 construct: made in HEK293E cells, purified on nickel column; also called hMSLN-FL-his; human MSLN full-length protein; not shown: His tag
- T1 sequence (Q13421 other isoform, or with tags, fused parts or gaps): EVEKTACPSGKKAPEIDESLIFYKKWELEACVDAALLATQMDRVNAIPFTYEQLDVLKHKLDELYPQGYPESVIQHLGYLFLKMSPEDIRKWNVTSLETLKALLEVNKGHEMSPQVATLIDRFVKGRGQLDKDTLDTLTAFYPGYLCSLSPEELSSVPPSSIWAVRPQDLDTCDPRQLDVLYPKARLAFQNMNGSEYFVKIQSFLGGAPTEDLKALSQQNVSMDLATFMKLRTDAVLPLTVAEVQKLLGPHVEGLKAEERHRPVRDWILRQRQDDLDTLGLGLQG
- assayNotes: SPR (Biacore), antibody captured on Protein A chip;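 further: measured at 25 °C, analyte injected 240 s in five twofold dilutions from 200 nM, dissociation up to 600 s, double-referenced, fitted with Langmuir 1:1 model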
measuredParameter: koff (s⁻¹)
Expressed in s⁻¹, but write only the number.

- S009-F3.74.20 (antibody, human IgG1, kappa, V domains shown, human-murine chimeric antibody, human IgG1/kappa constant regions) VH: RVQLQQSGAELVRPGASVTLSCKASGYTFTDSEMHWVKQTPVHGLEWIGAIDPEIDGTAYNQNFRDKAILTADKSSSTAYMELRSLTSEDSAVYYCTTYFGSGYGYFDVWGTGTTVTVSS VL: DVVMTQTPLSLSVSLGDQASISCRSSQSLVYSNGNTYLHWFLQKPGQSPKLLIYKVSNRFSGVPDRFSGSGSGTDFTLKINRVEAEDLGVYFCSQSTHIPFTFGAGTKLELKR: 5.04e-05
- S009-F2.47.1 (antibody, human IgG1, kappa, V domains shown, human-murine chimeric antibody, human IgG1/kappa constant regions) VH: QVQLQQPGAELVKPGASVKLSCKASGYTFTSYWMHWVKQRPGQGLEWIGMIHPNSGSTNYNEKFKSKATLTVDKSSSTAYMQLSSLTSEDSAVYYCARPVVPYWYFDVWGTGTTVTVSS VL: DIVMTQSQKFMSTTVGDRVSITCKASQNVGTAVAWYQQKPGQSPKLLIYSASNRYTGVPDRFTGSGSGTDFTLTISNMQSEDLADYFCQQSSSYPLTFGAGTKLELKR: 0.0103

Given the entry S009-F1.62.9 (antibody, human IgG1, kappa, V domains shown, human-murine chimeric antibody, human IgG1/kappa constant regions) VH: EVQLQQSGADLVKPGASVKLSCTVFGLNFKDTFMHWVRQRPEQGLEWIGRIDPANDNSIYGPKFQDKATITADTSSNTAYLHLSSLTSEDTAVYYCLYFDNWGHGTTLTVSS VL: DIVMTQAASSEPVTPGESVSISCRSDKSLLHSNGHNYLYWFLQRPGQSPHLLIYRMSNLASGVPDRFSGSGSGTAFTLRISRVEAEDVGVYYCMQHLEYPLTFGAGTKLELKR , report its measured koff.
0.000348
